Biological target: D(2) dopamine receptor (Homo sapiens)
Sequence (P14416 whole entry): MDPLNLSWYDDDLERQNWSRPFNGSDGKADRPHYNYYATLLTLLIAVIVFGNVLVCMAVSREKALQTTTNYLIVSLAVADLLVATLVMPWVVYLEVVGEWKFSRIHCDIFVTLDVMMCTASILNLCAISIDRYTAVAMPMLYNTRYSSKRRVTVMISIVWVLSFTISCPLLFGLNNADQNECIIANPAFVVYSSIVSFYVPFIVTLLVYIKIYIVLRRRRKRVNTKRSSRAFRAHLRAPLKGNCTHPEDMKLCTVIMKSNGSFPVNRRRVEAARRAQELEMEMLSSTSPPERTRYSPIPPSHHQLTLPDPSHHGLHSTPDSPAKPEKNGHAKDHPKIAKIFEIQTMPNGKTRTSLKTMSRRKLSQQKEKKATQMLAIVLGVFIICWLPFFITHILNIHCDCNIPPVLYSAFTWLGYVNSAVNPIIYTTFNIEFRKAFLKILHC
Test: Displacement of [3H]N-methylspiperone from human D2 receptor expressed in HEK cells
pKi: −log10 of the molar value.
# reported pKi; entries follow
MEASURE NAME: pKi

1. COc1ccc(CCN2C3C4C5CC6C7C5C3C7C2(O)C64)cc1OCCc1ccccc1 (stereo not drawn) ... < 5.00
2. O=C(CCCN1C2C3C4CC5C6C4C2C6C1(O)C53)c1ccc(F)cc1 (stereo not drawn) ... 5.76
3. COc1ccc(C)cc1C(=O)NCCN1C2C3C4CC5C6C4C2C6C1(O)C53 (stereo not drawn) ... < 5.00
